Origin of measurements: PubChem BioAssay AID330

Below, each of the molecules is paired with its reported T/C value.
# System: P388 leukemia ip, CD2F1 mice, survival T/C
# assayProtocol: NCI In Vivo Anticancer Drug Screen. Data for tumor model P388 Leukemia (intraperitoneal) in CD2F1 (CDF1) mice
# testParameters: endpoint: median survival time; dose: 200.0 mg/kg/injection; schedule: Q04DX003 (ip); vehicle: saline with Tween-80; higher = longer survival
Toxic doses and inconclusive results are not listed.
reportedEndpoint: T/C

INSERT INTO results (molecule, targetofassay, reportedendpoint, result) VALUES
  ('C#CCOC(=O)c1ccc(C(=O)OCC#C)cc1', 'P388 leukemia ip, CD2F1 mice, survival T/C', 'T/C', '90 % of control'),
  ('CCCCCCCCCCCCCCCCCCOP(=O)(CC(=O)NCc1cc(C(C)(C)C)c(O)c(C(C)(C)C)c1)OCCCCCCCCCCCCCCCCCC', 'P388 leukemia ip, CD2F1 mice, survival T/C', 'T/C', '100 % of control'),
  ('CCCCC(CC)C(=O)N1CCOCC1 (stereo unspecified)', 'P388 leukemia ip, CD2F1 mice, survival T/C', 'T/C', '100 % of control'),
  ('CC1(C)SC(C(NC(=O)Cc2ccccc2)C(=O)O)NC1C(=O)O (stereo unspecified)', 'P388 leukemia ip, CD2F1 mice, survival T/C', 'T/C', '100 % of control'),
  ('CSc1ncc(Br)c(C(=O)O)n1', 'P388 leukemia ip, CD2F1 mice, survival T/C', 'T/C', '100 % of control'),
  ('CCCCOC(=O)CCC(C)=O', 'P388 leukemia ip, CD2F1 mice, survival T/C', 'T/C', '100 % of control');
